# measuredOn: T1, HLA-A*02:01 (human)
# T1 construct: MHC class I monomer of the UV-ligand exchange assay; also called peptide-receptive MHC molecules; MHC class I
# runDescription: UV peptide-exchange ELISA
parameter: peptide exchange yield

// solved cases for peptide exchange yield follow
Ask: For the binder TLTFRVETV , what peptide exchange yield is on record?
Result: 50 to 75%

Ask: # iterate: TIAPVTVAV
Result: ≥ 75%

Ask: # iterate: YLFEEAISM
Result: 50 to 75%

Ask: # iterate: FLTDLFAQL
Result: ≥ 75%

Ask: # iterate: GLDDVTVEV
Result: 20 to 50%

Ask: # iterate: SLASIHVPL
Result: 50 to 75%

New cases:
Ask: For the binder KLLEEICNL , what peptide exchange yield is on record?
Result: ≥ 75%

Ask: # iterate: FIMDDPAGNSYL
Result: 50 to 75%

Ask: # iterate: VLAFENPQV
Result: 50 to 75%

Ask: # iterate: TLLDQLDTQL
Result: 20 to 50%

Ask: # iterate: FMHQIIDQV
Result: ≥ 75%
